Target system: SCD5 (Homo sapiens, UniProt Q86SK9)
Construct: host or cells: S. cerevisiae ole1Δ strain (W303 pdr1Δ pdr3Δ background), plasmid pRS316 with TDH3 promoter and CYC1 terminator
Sequence (Q86SK9 whole entry): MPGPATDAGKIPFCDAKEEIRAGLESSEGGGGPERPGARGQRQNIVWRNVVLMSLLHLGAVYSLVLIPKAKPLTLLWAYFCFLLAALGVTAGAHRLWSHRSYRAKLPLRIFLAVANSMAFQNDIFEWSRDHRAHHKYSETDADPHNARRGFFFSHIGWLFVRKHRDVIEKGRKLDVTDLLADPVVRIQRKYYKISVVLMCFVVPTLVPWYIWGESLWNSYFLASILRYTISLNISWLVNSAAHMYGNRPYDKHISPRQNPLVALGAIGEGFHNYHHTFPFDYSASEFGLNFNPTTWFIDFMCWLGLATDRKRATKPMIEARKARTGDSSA
Protocol: Growth inhibition of humanized yeast strain expressing SCD5 as sole desaturase
Format: cell-based
Details: humanized yeast strain expressing SCD5
Provide the reported SCD5 % Max Inhibition of each item.
Give bare numbers, in %.

Sample records with SCD5 % Max Inhibition:
Query :: I'd like to know its SCD5 % Max Inhibition. The molecule in question is CC(C)n1cc2cc(-c3noc(C4CCN(C(=O)CNC(=O)c5ccccc5)CC4)n3)ccc2n1 [Compound 229]
Result :: 71.18

Query :: I'd like to know its SCD5 % Max Inhibition. The molecule in question is CCOc1ccc(-c2noc(C3CCN(C(=O)CN4Cc5cccc(F)c5C4=O)CC3)n2)cc1OC [Compound 178]
Result :: 85.67

# return SCD5 % Max Inhibition for each item in the list
1. COC(=O)N1CCC(c2nc(-c3ccc4cnn(C(C)C)c4c3)no2)CC1 [Compound 355]
2. Cc1nn(C)c2cc(-c3noc(N4CCN(C(=O)N5CCCCC5)CC4)n3)ccc12 [Compound 327]

Result ::
1: 3.68; 2: 68.0

Where these numbers come from: patent US11873298B2
